- System: MDR1
- Experiment summary: MDCK-MDR1 permeability assay (BBB penetration potential)
- Format: in vitro ADME
- Reported conditions: dog, MDCK-MDR1, pH 7.4, MDCK-MDR1: Papp A-B
Reported Papp A→B at 120 min, 5 μM by item:
Value expressed in ×10⁻⁶ cm/s; do not type the unit.

Examples from the recorded data:
Compound: Cc1nnc(-c2ccc(-c3ccc(O[C@@H]4C[C@H]5CCC[C@H](N5)[C@@H]4F)nn3)c(O)c2)s1 (single isomer, unassigned) [95-ENT1]
Value units: ×10⁻⁶ cm/s
Papp A→B at 120 min, 5 μM: 4.88
//
Compound: Cn1cnc2cc(O)c(-c3ccc(O[C@H]4C[C@]5(C)CCC[C@@](C)(N5)[C@H]4F)nn3)cc2c1=O (single isomer, unassigned) [133-ENT1]
Value units: ×10⁻⁶ cm/s
Papp A→B at 120 min, 5 μM: 4.98
//
Compound: Cc1nc(-c2ccc(-c3ccc(O[C@H]4C[C@@H]5CCC[C@@H](N5)[C@H]4F)nn3)c(O)c2)co1 (single isomer, unassigned) [92-ENT2]
Value units: ×10⁻⁶ cm/s
Papp A→B at 120 min, 5 μM: 6.04

Read off the recorded Papp A→B at 120 min, 5 μM for Oc1cc(-n2cccn2)ccc1-c1ccc(O[C@H]2C[C@@H]3CC[C@@H](N3)[C@H]2F)nn1 (single isomer, unassigned) [35-ENT2] 6.25

* * *

- Tested on: mHTT protein
- Experiment summary: mHTT protein assay (2B7-MW1, Mesoscale Discovery)
- Assay type: cell-based, human
- Reported conditions: GM04724 (CAG 70/20) Huntington's disease patient lymphoblast cells, 48 hours, 2B7-MW1 MSD; read-out: HTT Potency - Protein EC50 mHTT (average)
- Protocol: Compounds are tested on GM04724 (CAG 70/20) Huntington's disease patient lymphoblast cells at doses ranging from 10 μM to 0.6 nM. 4,500 cells/well are seeded in 384 well plates. […] Compounds are incubated for 48 hours, mHTT protein levels are assessed by the 2B7-MW1 assay via Mesoscale Discovery (MSD) as previously reported (Macdonald et al., 2014). […] The viability readout is carried out by CTG according to the manufacturer's instructions.
pEC50: −log10 of the molar value.
Outcome measure: pEC50

Here is how some compounds turned out for pEC50.
Compound: Cn1cc(-c2cc(O)c(-c3ccc(O[C@H]4C[C@@H]5CCC[C@@H](N5)[C@H]4F)nn3)cc2F)cn1 (single isomer, unassigned)
pEC50: 7.82 to 11.00
//
Compound: Cn1cc(-c2cc(O)c(-c3ccc(O[C@H]4C[C@@H]5CCC(N5)[C@H]4F)nn3)cn2)cn1 (single isomer, unassigned)
pEC50: 5.00 to 6.30
//
Compound: Cn1ccc(-c2ccc(-c3ccc(O[C@H]4C[C@@H]5CCC[C@@H](N5)[C@H]4F)nn3)c(O)c2)n1 (single isomer, unassigned)
pEC50: 6.30 to 7.00
//
Compound: Oc1cc(-c2ccn3ccnc3c2)ccc1-c1ccc(O[C@H]2C[C@@H]3CCC[C@@H](N3)[C@H]2F)nn1 (single isomer, unassigned)
pEC50: 6.30 to 7.00
//
Compound: Cn1cc(-c2ccc(-c3ccc(O[C@@H]4C[C@H]5CCC[C@H](N5)[C@@H]4F)nn3)c(O)c2)oc1=O (single isomer, unassigned)
pEC50: 7.82 to 11.00
//
Compound: Cn1cc(-c2cc(O)c(-c3ccc(O[C@@H]4C[C@H]5CCC[C@H](N5)[C@@H]4F)nn3)cn2)cn1 (single isomer, unassigned)
pEC50: 5.00 to 6.30
//
Compound: Oc1cc(-n2ncc3ccccc32)ccc1-c1ccc(O[C@@H]2C[C@H]3CC[C@H](N3)[C@@H]2F)nn1 (single isomer, unassigned)
pEC50: 5.00 to 6.30
//
Compound: N#Cc1ccc(-c2ccc(O[C@@H]3C[C@H]4CC[C@H](N4)[C@@H]3F)nn2)c(O)c1 (single isomer, unassigned)
pEC50: 5.00 to 6.30

Give me measured pEC50, please, for this compound: Cc1cc(-c2ccc(-c3ccc(O[C@H]4C[C@@H]5CCC[C@@H](N5)[C@H]4F)nn3)c(O)c2)cs1 (single isomer, unassigned) 7.30 to 7.80

Entry Cn1cc(-c2ccc(-c3ccc(O[C@@H]4C[C@@]5(C)CCC[C@](C)(N5)[C@@H]4F)nn3)c(O)c2)cn1 (single isomer, unassigned) needs its pEC50 filled in; supply it. 7.30 to 7.80

Tell us which pEC50 value is on record for Cn1ccc2cc(-c3ccc(O[C@@H]4C[C@H]5CC[C@H](N5)[C@@H]4F)nn3)c(O)cc2c1=O (single isomer, unassigned) 6.30 to 7.00

Output measured pEC50 for this item: Oc1cc(-c2cn[nH]c2)ccc1-c1ccc(O[C@H]2C[C@@H]3CC[C@@H](N3)[C@H]2F)nn1 (single isomer, unassigned) 7.82 to 11.00

* * *

Measured Papp B→A at 120 min, 5 μM by item
- System: MDR1
- Experiment summary: MDCK-MDR1 permeability assay (BBB penetration potential)
- Type: in vitro ADME
- Reported conditions: dog, MDCK-MDR1, pH 7.4, MDCK-MDR1: Papp B-A
- Description: Each determination is performed in duplicate. […] Analytical conditions are outlined below.
Numbers only; they are read as ×10⁻⁶ cm/s.

Provide the reported Papp B→A at 120 min, 5 μM (system: MDR1) for Oc1cc2cnccc2cc1-c1ccc(O[C@H]2C[C@@H]3CCC[C@@H](N3)[C@H]2F)nn1 (single isomer, unassigned) [80-ENT2] 32.1

State, for MDR1, measured Papp B→A at 120 min, 5 μM of the molecule listed here: N#Cc1ccc(-c2ccc(O[C@@H]3C[C@H]4CC[C@H](N4)[C@@H]3F)nn2)c(O)c1 (single isomer, unassigned) [111-ENT1] 44.7

Give Papp B→A at 120 min, 5 μM only, for Oc1cc(-n2cccn2)ccc1-c1ccc(O[C@H]2C[C@@H]3CC[C@@H](N3)[C@H]2F)nn1 (single isomer, unassigned) [35-ENT2] , using MDR1 data. 24

* * *

- System: MDR1
- Experiment summary: MDCK-MDR1 permeability assay (BBB penetration potential)
- Assay type: in vitro ADME
- Reported conditions: dog, MDCK-MDR1, pH 7.4, MDCK-MDR1: Papp B-A
Decide using Papp B→A at 120 min, 5 μM alone. Strictly below 50 ×10⁻⁶ cm/s: y. Equal to or above 50 ×10⁻⁶ cm/s: n.

Some entries whose results are on file:
Compound: C[C@@]12CC[C@@](C)(N1)[C@@H](F)[C@@H](Oc1ccc(-c3ccc(-c4cn[nH]c4)cc3O)nn1)C2 (single isomer, unassigned)
Classification: y
//
Compound: O=c1cc(-c2cc(O)c(-c3ccc(O[C@H]4C[C@@H]5CCC[C@@H](N5)[C@H]4F)nn3)cc2F)cc[nH]1 (single isomer, unassigned)
Classification: y
//
Compound: Oc1cc2ncccc2cc1-c1ccc(O[C@H]2C[C@@H]3CCC[C@@H](N3)[C@H]2F)nn1 (single isomer, unassigned)
Classification: n

Then there is this compound:
A record lists Oc1cc(-c2cn[nH]c2)ccc1-c1ccc(O[C@@H]2C[C@H]3C[C@H](F)C[C@@H](C2)N3)nn1 . Is its Papp B→A at 120 min, 5 μM below 50 ×10⁻⁶ cm/s? n

* * *

- Tested on: mHTT protein
- Experiment summary: mHTT protein assay (2B7-MW1, Mesoscale Discovery)
- Format: cell-based, human
- Reported conditions: GM04724 (CAG 70/20) Huntington's disease patient lymphoblast cells, 48 hours, 2B7-MW1 MSD; read-out: HTT Potency - Protein EC50 mHTT (average)
pEC50: −log10 of the molar value.
As shown below, each of these compounds has a reported pEC50 value.

Quote pEC50 reported for O=c1cc(-c2ccc(-c3ccc(O[C@H]4C[C@@H]5CCC[C@@H](N5)[C@H]4F)nn3)c(O)c2)ccn1CF (single isomer, unassigned) [106-ENT2] please. 7.00 to 7.29

* * *

- System: MDR1
- Experiment summary: MDCK-MDR1 permeability assay (BBB penetration potential)
- Format: in vitro ADME
- Reported conditions: dog, MDCK-MDR1, pH 7.4, MDCK-MDR1: Papp B-A
Outcome measure: Papp B→A at 120 min, 5 μM (×10⁻⁶ cm/s)
Note: unit ×10⁻⁶ cm/s is implicit; provide only the numeric part.

Worked examples follow.
Molecule: Cn1ccc(-c2ccc(-c3ccc(O[C@H]4C[C@@H]5CCC[C@@H](N5)[C@H]4F)nn3)c(O)c2)nc1=O (single isomer, unassigned)
Value units: ×10⁻⁶ cm/s
Papp B→A at 120 min, 5 μM: 11.2

Molecule: Cc1ccc(-c2ccc(-c3ccc(O[C@@H]4C[C@H]5CCC[C@H](N5)[C@@H]4F)nn3)c(O)c2)nn1 (single isomer, unassigned)
Value units: ×10⁻⁶ cm/s
Papp B→A at 120 min, 5 μM: 32.5

Molecule: Oc1cc(-c2cn[nH]c2)ccc1-c1ccc(O[C@@H]2C[C@H]3CCC[C@H](N3)[C@@H]2F)nn1 (single isomer, unassigned)
Value units: ×10⁻⁶ cm/s
Papp B→A at 120 min, 5 μM: 41.6

Molecule: C[C@]12CC[C@](C)(N1)[C@H](F)[C@H](Oc1ccc(-c3ccc(-c4cn[nH]c4)cc3O)nn1)C2 (single isomer, unassigned)
Value units: ×10⁻⁶ cm/s
Papp B→A at 120 min, 5 μM: 50.7

Molecule: Oc1cc(-c2cn[nH]c2)ccc1-c1ccc(O[C@H]2C[C@@H]3CC[C@@H](N3)[C@@H]2F)nn1 (single isomer, unassigned)
Value units: ×10⁻⁶ cm/s
Papp B→A at 120 min, 5 μM: 48.9

Molecule: Cn1cc(-c2ccc(-c3ccc(O[C@H]4C[C@@H]5COC[C@@H](N5)[C@H]4F)nn3)c(O)c2)cn1 (single isomer, unassigned)
Value units: ×10⁻⁶ cm/s
Papp B→A at 120 min, 5 μM: 43.5

Read off the recorded Papp B→A at 120 min, 5 μM for O=c1cc(-c2ccc(-c3ccc(O[C@H]4C[C@@H]5CCC[C@@H](N5)[C@H]4F)nn3)c(O)c2)ccn1CF (single isomer, unassigned) 56.7

Supply measured Papp B→A at 120 min, 5 μM of Cn1cc(-c2ccc(-c3ccc(O[C@H]4C[C@@H]5CCC[C@@H](N5)[C@@H]4F)nn3)c(O)c2)cn1 (single isomer, unassigned) in your reply. 15.4
